- ASSAY_PROCEDURE: NCI Yeast Anticancer Drug Screen. Data for the rad50 strain (AID 155);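 also: 0% = growth of vehicle-only cultures of the same strain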
- APPLIED_CONDITIONS: S. cerevisiae rad50 strain growth inhibition; at 33.0 µM
The panel holds about 79,000 compounds, 15% with a hit somewhere; the sample as a whole holds those more often. Active and inactive are the calls of the source. Rule as the data show it: active = growth inhibition above about 70%; inactive = the rest.
Please reply with one of these outcomes: yes (1) (active), no (0) (inactive)

Lab log entry: `CNC(=O)ON(C(C)=O)C(=O)NC` — outcome as called in the assay?
no (0)

Lab log entry: C[C@]12CCc3nonc3C1CC[C@@H]1C2CC[C@]2(C)C(=O)CCC12 (stereo partly specified) — outcome as called in the assay?
no (0)

Lab log entry: COC(=O)C1c2cc3c(c(O)c2C(O)CC1(C)O)C(=O)c1c(O)cc2c(c1C3=O)OC1OC2(C)C(O)C(N(C)C)C1O (stereo unspecified) — outcome as called in the assay?
yes (1)

Lab log entry: `CN(C)CCC(C(=O)C(Br)Br)(c1ccccc1)c1ccccc1` — outcome as called in the assay?
yes (1)

Lab log entry: C[N+](C)(C)CC1CCCC(C[N+](C)(C)C)C1=O (stereo unspecified) — outcome as called in the assay?
no (0)

Lab log entry: `Cn1cnc(N)c1C(=N)[Se]` — outcome as called in the assay?
yes (1)

Lab log entry: O=C1C2CC(Cl)C(SSC3CC4C(=O)N(SC(Cl)(Cl)C(Cl)Cl)C(=O)C4CC3Cl)CC2C(=O)N1SC(Cl)(Cl)C(Cl)Cl (stereo unspecified) — outcome as called in the assay?
yes (1)

Lab log entry: C[C@]12CCC(=O)C=C1CC[C@@H]1C2CC[C@@]2(C)C1CC[C@@H]2OC(=O)C12OC1CCC2=O (stereo partly specified) — outcome as called in the assay?
yes (1)

Lab log entry: `O=C(O)c1ccccc1.[Ag]` — outcome as called in the assay?
yes (1)

Lab log entry: C/C(=N\N=C(N)N)C(CN1CCOCC1)C(c1ccccc1)c1c(O)c2ccccc2oc1=O (stereo unspecified) — outcome as called in the assay?
no (0)

Lab log entry: `CC1=C(N2CC2)C(=O)c2ccccc2C1=O` — outcome as called in the assay?
yes (1)

Lab log entry: COC1C(O)C(C)OC(OC2C(Oc3cccc4c(O)c5c(=O)oc6ccc(C)c7c(=O)oc(c34)c5c67)OC(C)C(O)C2O)C1O (stereo unspecified) — outcome as called in the assay?
yes (1)

Lab log entry: `COC(=O)C1=C(C(=O)OC)SC2(S1)C(C(=O)OC)=C(C(=O)OC)Sc1c2ssc1=O` — outcome as called in the assay?
yes (1)

Lab log entry: CC(Cc1ccccc1)N(C)Cc1nc(C2CCC([N+](=O)[O-])O2)no1 (stereo unspecified) — outcome as called in the assay?
no (0)

Lab log entry: `N#Cc1cc(N(CCCl)CCCl)c([N+](=O)[O-])cc1[N+](=O)[O-]` — outcome as called in the assay?
no (0)

----------
- ASSAY_PROCEDURE: NCI Yeast Anticancer Drug Screen. Data for the mlh1 rad18 strain (AID 175)
- APPLIED_CONDITIONS: S. cerevisiae mlh1 rad18 strain growth inhibition; at 50.0 µM (retest, dose inferred, filed as 5.0); active compounds read high
The panel holds about 79,000 compounds, 15% with a hit somewhere; the sample as a whole holds those more often.
List of growth inhibition values.
Give the quantity in %, number only.

Completed entries (count: 8):
COMPOUND | EXPERIMENTAL_RESULT
O=P1(Oc2ccccc2)C(c2ccccc2)C(c2ccccc2)=NN1c1ccccc1 (configuration not stated) | 11
C/C(=N\N=C(N)N)C(CN1CCOCC1)C(c1ccccc1)c1c(O)c2ccccc2oc1=O (configuration not stated) | 57
CSc1ncc(COP(=S)(OCc2cnc(SC)nc2N)OCc2cnc(SC)nc2N)c(N)n1 | 9
COc1ccc(/C=C(/C)[N+](=O)[O-])cc1 | 99
O=c1oc2ccccc2c(O)c1C1c2c(c3ccccc3oc2=O)Oc2c1c(=O)oc1ccccc21 | 97
C=Cc1ccccc1 (tested in a mixture with another compound) | 1
COC(=O)C1=C(C(=O)OC)[C]([Hg][CH3])(C(C)=O)N=N1 (configuration not stated) | 99
CCCCCCCCCCCCN=C(N)N | 98

Give the measured growth inhibition of CS(=O)(=O)[O-].CS(=O)(=O)[O-].NC1CCCCC1N.[Pt+4] (configuration not stated) .
98

Give the measured growth inhibition of `O=C1NC(=S)NC(=O)C1=C/C=C/c1ccccc1` .
33

Give the measured growth inhibition of CCOC(=O)C1CC12c1ccccc1-c1ccccc12 (configuration not stated) .
41

Give the measured growth inhibition of `O=C(CCCC(=O)NNC(=O)Nc1cccc(S(=O)(=O)F)c1)NNC(=O)Nc1cccc(S(=O)(=O)F)c1` .
33

----------
- ASSAY_PROCEDURE: NCI Yeast Anticancer Drug Screen. Data for the mec2-1 strain (AID 157)
- APPLIED_CONDITIONS: S. cerevisiae mec2-1 strain, at 50.0 µM (retest, dose inferred, filed as 5.0), active compounds read high
Compounds without any hit were thinned out: in the full panel of roughly 79,000, 15% have a hit.
List of growth inhibition values.
Give the quantity in %, number only.

Completed entries (count: 2):
CPD_SMILES | READOUT_UNIT | growth inhibition
Cc1cccc(NC(=O)CBr)c1 | % | 99
C1CC[N-]CC1.[Cl][Au]([Cl])[Cl] | % | 63

Turning to the following compound.
Give the measured growth inhibition of `CN1CSC(=S)N(C)C1` .
99

----------
- ASSAY_PROCEDURE: NCI Yeast Anticancer Drug Screen. Data for the mlh1 rad18 strain (AID 175)
- APPLIED_CONDITIONS: S. cerevisiae mlh1 rad18 strain growth inhibition; at 50.0 µM (retest, dose inferred, filed as 5.0)
The panel holds about 79,000 compounds, 15% with a hit somewhere; the sample as a whole holds those more often. Active and inactive are the calls of the source. Rule as the data show it: active = growth inhibition above about 70%; inactive = the rest.
Please reply with one of these outcomes: YES for active, NO for inactive

Below are worked cases with known answers.
COMPOUND | ANSWER_LABEL
[Br][Cd][Br].c1ccc([PH+](c2ccccc2)c2ccccc2)cc1.c1ccc([PH+](c2ccccc2)c2ccccc2)cc1 | YES
Cc1cc(N(CCCl)CCCl)ccc1CN1CCCN(Cc2ccc(N(CCCl)CCCl)cc2C)C1c1cccc(F)c1 | YES
COC1NC(=O)NC(=O)C1=[N+]=[N-] (configuration not stated) | NO
Oc1cc(Cl)c(Cl)cc1Cl | YES
CN(C)CCCNc1ccnc2c(COC(=O)N(CCCl)CCCl)ccc([N+](=O)[O-])c12 | YES

Lab log entry: COC12C(COC(C)=O)C3=C(C(=O)C(C)=C(N4CCCCC4)C3=O)N1CC1NC12 (configuration not stated) — outcome as called in the assay?
YES

Lab log entry: `Cn1cc(NC(=O)c2cc(NC(=O)CN=C(N)N)cn2C)cc1C(=O)NCCC(=N)N` — outcome as called in the assay?
YES

Lab log entry: O=C(O)C1C2c3ccccc3C(c3ccccc32)C1C(=O)O (configuration not stated) — outcome as called in the assay?
NO

Lab log entry: O=C(OCc1ccccc1)C(C(Cl)c1ccccc1)N(Cc1ccccc1)Cc1ccccc1 (configuration not stated) — outcome as called in the assay?
NO

Lab log entry: `CC(=O)O[C@H]1CC[C@H]2[C@@H]3CCC4=CC(=O)CC[C@@H]4[C@H]3CC[C@]12C` — outcome as called in the assay?
YES

Lab log entry: [Cl][Pt+2][Cl].[NH-]C(c1ccccc1)C([NH-])c1ccccc1 (configuration not stated) — outcome as called in the assay?
NO

Lab log entry: `C[C@]12CC[C@H](O)CC1=CC[C@@H]1[C@@H]2CC[C@]2(C)C(=O)CC[C@@H]12` — outcome as called in the assay?
YES

----------
- ASSAY_PROCEDURE: NCI Yeast Anticancer Drug Screen. Data for the rad50 strain (AID 155);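 also: 0% = growth of vehicle-only cultures of the same strain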
- APPLIED_CONDITIONS: S. cerevisiae rad50 strain growth inhibition; at 5.0 µM (retest, dose inferred, filed as 0.5)
The panel holds about 79,000 compounds, 15% with a hit somewhere; the sample as a whole holds those more often. The source made the active and inactive calls. Rule as the data show it: active = growth inhibition above about 70%; inactive = the rest.
Please reply with one of these outcomes: y (active), n (inactive)

Below are worked cases with known answers.
COMPOUND | ANSWER_LABEL
CCC(C)(C)c1ccc(O)cc1 | n
CCNC(=O)O/N=C1/C=C2CC[C@@H]3C(CC[C@@]4(C)C3CC[C@@H]4OC(=O)NCC)[C@@]2(C)CC1 (some centres undefined) | y

Lab log entry: CN(C)CC(Cl)CCl (centres undefined) — outcome as called in the assay?
n

Lab log entry: COC(=O)C(CCCN=C(N)N[N+](=O)[O-])NC(=O)c1ccc2c(c1O)C(=O)c1ccccc1C2=O (centres undefined) — outcome as called in the assay?
n

Lab log entry: `COc1ccc2c(c1O)-c1cccc3c1[C@@H](C2)N(CCCl)CC3` — outcome as called in the assay?
n

Lab log entry: `CC[C@H](C)c1occ2c(O)c(C(=O)O)c(=O)cc-2c1C` — outcome as called in the assay?
n

Lab log entry: COc1cccc(C(Cc2ccc(N3C(N)=NC(N)=NC3(C)C)cc2)C(=O)Nc2ccc(S(=O)(=O)F)cc2)c1 (centres undefined) — outcome as called in the assay?
n

Lab log entry: `CC(=O)O[C@H]1CC[C@H]2[C@@H]3CC[C@H]4CC(=O)CC[C@@H]4[C@H]3CC[C@]12C` — outcome as called in the assay?
n

Lab log entry: C[CH2][Sn]1([CH2]C)[O]C2C(O)OC(CO)C(O)C2[O]1 (centres undefined) — outcome as called in the assay?
n

Lab log entry: `CCOP(=O)(OCC)/C(C#N)=C/c1cccc(C)c1` — outcome as called in the assay?
n

Lab log entry: CC1CCOC(=O)/C=C/C=C/C(=O)OC2CC3OC4C5OC5(C)C(O)CC4(COC(=O)C1O)C2(C)C31CO1 (centres undefined) — outcome as called in the assay?
n

Lab log entry: `Cc1c([N+](=O)[O-])oc2ccc3ccccc3c12` — outcome as called in the assay?
y
